Tested on: N. gonorrhoeae WHO G
Assay: Liquid broth MIC in Fastidious broth
Conditions: Neisseria gonorrhoeae, read-out: Minimum Inhibitory Concentration (MIC), N. gonorrhoeae WHO G
parameter_measured: MIC

Past entries and their recorded results:
INSERT INTO results (compound, observed_value) VALUES
  ('O=C(CN1CCN(C(=O)NC(C(=O)N[C@H]2Cc3ccc(F)c(C(=O)O)c3OB2O)c2cc(F)c(O)c(O)c2Cl)C(=O)C1=O)NCc1ccccc1 (stereo partly drawn) [Example 238]', '4 to 8 µg/mL'),
  ('O=C(NCCN1CCN(C(=O)NC(C(=O)N[C@H]2Cc3ccc(F)c(C(=O)O)c3OB2O)c2cc(F)c(O)c(O)c2Cl)C(=O)C1=O)c1cccnc1 (stereo partly drawn) [Example 217]', '16 to 32 µg/mL'),
  ('O=C(N[C@@H](C(=O)N[C@H]1Cc2cccc(C(=O)O)c2OB1O)c1ccc(P(=O)(O)O)cc1)c1ccc(C(F)(F)F)cn1 (single isomer, unassigned) [Example 193]', '< 1 µg/mL'),
  ('O=C(O)c1cccc2c1OB(O)[C@@H](NC(=O)C(NC(=O)c1cnc[nH]c1=O)c1ccc(P(=O)(O)O)cc1)C2 (stereo partly drawn) [Example 176]', '4 to 8 µg/mL'),
  ('O=C(O)c1cccc2c1OB(O)[C@@H](NC(=O)C(NC(=O)C1CC1)c1ccc(P(=O)(O)O)cc1)C2 (stereo partly drawn) [Example 30]', '4 to 8 µg/mL'),
  ('O=C(O)c1cccc2c1OB(O)[C@@H](NC(=O)C(NC(=O)c1ccc[nH]c1=O)c1ccc(P(=O)(O)O)cc1)C2 (stereo partly drawn) [Example 174]', '1 to 2 µg/mL');

Query string: Requested read-out: MIC. Entry: O=C(NCCCN1CCN(C(=O)NC(C(=O)N[C@H]2Cc3ccc(F)c(C(=O)O)c3OB2O)c2cc(F)c(O)c(O)c2Cl)C(=O)C1=O)Nc1cccc(O)c1 (stereo partly drawn) [Example 206]
Result string: 4 to 8 µg/mL
